Target: full-length kinase/Nluc fusion proteins (Homo sapiens)
Assay: Apparent affinity (EC50) of energy transfer probes by titration onto live HEK293 cells expressing kinase/Nluc fusions (Table S1)
Conditions: PLK4, Nluc N; read-out: Probe EC50
Measured parameter: EC50 (µM)
Give a bare numeral; the unit µM is implied.

EC50 reading for CNC(=O)c1ccccc1Nc1nc(Nc2ccc(N3CCN(C(=O)CCOCCOCCOCCOCCNC(=O)CCc4ccc5n4[B-](F)(F)[N+]4=C(c6ccc[nH]6)C=CC4=C5)CC3)cc2)ncc1Cl [Energy Transfer Probe 5] : 0.4

----------
Target: full-length kinase/Nluc fusion proteins (Homo sapiens, UniProt P36896)
Sequence (P36896 24-505): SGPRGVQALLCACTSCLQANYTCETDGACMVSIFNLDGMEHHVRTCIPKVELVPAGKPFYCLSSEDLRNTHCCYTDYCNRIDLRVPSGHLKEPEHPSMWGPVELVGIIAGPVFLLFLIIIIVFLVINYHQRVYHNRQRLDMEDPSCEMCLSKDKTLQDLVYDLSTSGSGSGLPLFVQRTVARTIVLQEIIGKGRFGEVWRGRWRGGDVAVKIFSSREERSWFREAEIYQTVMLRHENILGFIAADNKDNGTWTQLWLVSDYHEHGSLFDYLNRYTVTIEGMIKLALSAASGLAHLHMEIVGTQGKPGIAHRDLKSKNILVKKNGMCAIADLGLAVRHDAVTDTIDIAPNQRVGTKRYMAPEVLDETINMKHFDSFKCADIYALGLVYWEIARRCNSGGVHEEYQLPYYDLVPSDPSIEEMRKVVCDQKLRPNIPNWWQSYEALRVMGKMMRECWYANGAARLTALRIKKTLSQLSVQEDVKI
Experiment: Apparent affinity (EC50) of energy transfer probes by titration onto live HEK293 cells expressing kinase/Nluc fusions (Table S1)
Format: binding
Conditions: ACVR1B, Nluc C; read-out: Probe EC50
Measured parameter: EC50

Lab note: measured EC50 of CNC(=O)c1ccccc1Nc1nc(Nc2ccc(N3CCN(C(=O)CCOCCOCCOCCOCCNC(=O)CCc4ccc5n4[B-](F)(F)[N+]4=C(c6ccc[nH]6)C=CC4=C5)CC3)cc2)ncc1Cl [Energy Transfer Probe 5] was > 1000 nM

----------
Molecular target: full-length kinase/Nluc fusion proteins (Homo sapiens, UniProt P22455)
Sequence (P22455 22-802): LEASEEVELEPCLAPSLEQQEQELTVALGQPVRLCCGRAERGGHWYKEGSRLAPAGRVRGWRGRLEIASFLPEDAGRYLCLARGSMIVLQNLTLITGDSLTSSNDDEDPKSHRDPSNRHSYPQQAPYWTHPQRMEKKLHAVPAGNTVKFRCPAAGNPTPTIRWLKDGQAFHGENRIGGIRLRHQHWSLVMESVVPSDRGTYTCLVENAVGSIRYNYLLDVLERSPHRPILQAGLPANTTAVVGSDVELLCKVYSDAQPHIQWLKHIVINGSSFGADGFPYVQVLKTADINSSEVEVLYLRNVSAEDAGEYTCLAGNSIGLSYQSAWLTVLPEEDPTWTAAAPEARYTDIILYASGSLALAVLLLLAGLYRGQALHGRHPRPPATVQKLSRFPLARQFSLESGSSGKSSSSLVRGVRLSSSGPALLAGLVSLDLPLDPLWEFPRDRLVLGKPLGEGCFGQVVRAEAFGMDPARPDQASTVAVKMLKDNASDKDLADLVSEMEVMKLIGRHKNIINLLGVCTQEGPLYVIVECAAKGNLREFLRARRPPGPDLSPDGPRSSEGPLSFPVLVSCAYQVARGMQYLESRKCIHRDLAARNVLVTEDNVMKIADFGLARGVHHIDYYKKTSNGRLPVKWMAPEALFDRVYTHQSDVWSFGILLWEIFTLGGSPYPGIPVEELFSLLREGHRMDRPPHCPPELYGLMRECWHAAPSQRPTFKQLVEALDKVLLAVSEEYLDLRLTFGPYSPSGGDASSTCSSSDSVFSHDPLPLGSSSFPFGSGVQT
Assay: Apparent affinity (EC50) of energy transfer probes by titration onto live HEK293 cells expressing kinase/Nluc fusions (Table S1)
Conditions: FGFR4, Nluc C; read-out: Probe EC50
pEC50: −log10 of the molar value.
Measured parameter: pEC50

Value of measured pEC50 for the entry CNC(=O)c1ccccc1Nc1nc(Nc2ccc(N3CCN(C(=O)CCOCCOCCOCCOCCNC(=O)CCc4ccc5n4[B-](F)(F)[N+]4=C(c6ccc[nH]6)C=CC4=C5)CC3)cc2)ncc1Cl [Energy Transfer Probe 5] : < 6.00

----------
Biological target: full-length kinase/Nluc fusion proteins (Homo sapiens, UniProt Q9BVS4)
Experiment: Apparent affinity (EC50) of energy transfer probes by titration onto live HEK293 cells expressing kinase/Nluc fusions (Table S1)
Settings: RIOK2, Nluc N; read-out: Probe EC50
Measured parameter: EC50

The measured EC50 associated with CNC(=O)c1ccccc1Nc1nc(Nc2ccc(N3CCN(C(=O)CCOCCOCCOCCOCCNC(=O)CCc4ccc5n4[B-](F)(F)[N+]4=C(c6ccc[nH]6)C=CC4=C5)CC3)cc2)ncc1Cl [Energy Transfer Probe 5] reads > 1000 nM

----------
Target: full-length kinase/Nluc fusion proteins (Homo sapiens, UniProt Q9NY57)
Sequence (Q9NY57 whole entry, the tested form may be a part): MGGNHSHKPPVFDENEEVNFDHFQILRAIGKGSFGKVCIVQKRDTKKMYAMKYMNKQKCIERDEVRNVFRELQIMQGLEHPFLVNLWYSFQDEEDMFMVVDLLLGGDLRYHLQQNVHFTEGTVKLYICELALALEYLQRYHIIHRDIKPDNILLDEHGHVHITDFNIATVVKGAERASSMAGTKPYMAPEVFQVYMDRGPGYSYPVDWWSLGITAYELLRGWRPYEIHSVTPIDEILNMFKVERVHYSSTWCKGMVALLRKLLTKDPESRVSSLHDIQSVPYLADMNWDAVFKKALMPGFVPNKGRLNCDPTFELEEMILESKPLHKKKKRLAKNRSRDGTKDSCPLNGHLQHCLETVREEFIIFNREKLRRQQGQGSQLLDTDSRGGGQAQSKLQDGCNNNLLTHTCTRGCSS
Experiment: Apparent affinity (EC50) of energy transfer probes by titration onto live HEK293 cells expressing kinase/Nluc fusions (Table S1)
Conditions: STK32B (NP_060871), Nluc orientation N; read-out: Probe EC50
Measured parameter: EC50 (µM)
Numeric only. Scale: µM

Note to self: EC50 recorded for CNC(=O)c1ccccc1Nc1nc(Nc2ccc(N3CCN(C(=O)CCOCCOCCOCCOCCNC(=O)CCc4ccc5n4[B-](F)(F)[N+]4=C(c6ccc[nH]6)C=CC4=C5)CC3)cc2)ncc1Cl [Energy Transfer Probe 5] was 0.6

----------
Target: full-length kinase/Nluc fusion proteins (Homo sapiens, UniProt P09769)
Experiment: Apparent affinity (EC50) of energy transfer probes by titration onto live HEK293 cells expressing kinase/Nluc fusions (Table S1)
Details: FGR, Nluc N; read-out: Probe EC50
Measured parameter: pEC50
Kindly note that pEC50 refers to -log10 of the concentration in mol/L and answer with the value alone.

Lab note: measured pEC50 of Cc1nc(Nc2ncc(C(=O)Nc3c(C)cccc3Cl)s2)cc(N2CCN(CCOCCNC(=O)CCc3ccc4n3[B-](F)(F)[N+]3=C(c5ccc[nH]5)C=CC3=C4)CC2)n1 [Energy Transfer Probe 6] was 6.15

----------
Target: full-length kinase/Nluc fusion proteins (Homo sapiens, UniProt Q9HAZ1)
Sequence (Q9HAZ1 whole entry, the tested form may be a part): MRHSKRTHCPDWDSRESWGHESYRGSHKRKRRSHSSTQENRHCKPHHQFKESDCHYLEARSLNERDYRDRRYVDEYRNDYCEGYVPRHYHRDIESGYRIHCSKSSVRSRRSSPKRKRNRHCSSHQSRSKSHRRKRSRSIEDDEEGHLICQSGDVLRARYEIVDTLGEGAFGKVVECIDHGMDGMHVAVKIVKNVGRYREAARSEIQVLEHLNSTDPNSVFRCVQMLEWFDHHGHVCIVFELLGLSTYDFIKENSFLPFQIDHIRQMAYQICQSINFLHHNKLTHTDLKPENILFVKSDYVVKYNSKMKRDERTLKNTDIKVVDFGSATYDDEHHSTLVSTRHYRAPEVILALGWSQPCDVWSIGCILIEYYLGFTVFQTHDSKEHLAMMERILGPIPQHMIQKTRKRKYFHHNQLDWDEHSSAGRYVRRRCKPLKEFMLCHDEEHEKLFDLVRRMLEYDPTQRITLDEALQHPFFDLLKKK
Experiment: Apparent affinity (EC50) of energy transfer probes by titration onto live HEK293 cells expressing kinase/Nluc fusions (Table S1)
Settings: CLK4, Nluc C; read-out: Probe EC50
Measured parameter: EC50 (nM)
Reply with just the number (in nM).

Kindly note the recorded EC50 for CNC(=O)c1ccccc1Nc1nc(Nc2ccc(N3CCN(C(=O)CCOCCOCCOCCOCCNC(=O)CCc4ccc5n4[B-](F)(F)[N+]4=C(c6ccc[nH]6)C=CC4=C5)CC3)cc2)ncc1Cl [Energy Transfer Probe 5] , which is 300

----------
Target: full-length kinase/Nluc fusion proteins (Homo sapiens, UniProt P49841)
Sequence (P49841 whole entry, the tested form may be a part): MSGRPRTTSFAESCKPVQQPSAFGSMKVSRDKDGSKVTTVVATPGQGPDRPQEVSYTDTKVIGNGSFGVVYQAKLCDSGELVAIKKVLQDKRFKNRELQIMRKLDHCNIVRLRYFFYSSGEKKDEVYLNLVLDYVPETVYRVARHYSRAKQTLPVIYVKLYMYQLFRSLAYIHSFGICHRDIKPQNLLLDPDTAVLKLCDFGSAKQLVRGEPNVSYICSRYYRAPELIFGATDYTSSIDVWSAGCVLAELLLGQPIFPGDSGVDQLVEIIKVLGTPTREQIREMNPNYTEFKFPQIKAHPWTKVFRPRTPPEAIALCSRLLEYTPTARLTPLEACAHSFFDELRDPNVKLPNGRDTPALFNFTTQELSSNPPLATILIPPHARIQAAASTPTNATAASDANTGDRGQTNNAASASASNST
Test: Apparent affinity (EC50) of energy transfer probes by titration onto live HEK293 cells expressing kinase/Nluc fusions (Table S1)
Settings: GSK3B, Nluc N; read-out: Probe EC50
Measured parameter: pEC50
The scale used: pEC50 is minus the common logarithm of the concentration in molar units.

Entry under test: N#CCc1ccc(Nc2nc(NCCCCNC(=O)CCc3ccc4n3[B-](F)(F)[N+]3=C(c5ccc[nH]5)C=CC3=C4)cc(Nc3cc(C4CC4)[nH]n3)n2)cc1 [Energy Transfer Probe 1] . Its pEC50 was 6.70

----------
Molecular target: UniProtKB P06239
Sequence (P06239 whole entry): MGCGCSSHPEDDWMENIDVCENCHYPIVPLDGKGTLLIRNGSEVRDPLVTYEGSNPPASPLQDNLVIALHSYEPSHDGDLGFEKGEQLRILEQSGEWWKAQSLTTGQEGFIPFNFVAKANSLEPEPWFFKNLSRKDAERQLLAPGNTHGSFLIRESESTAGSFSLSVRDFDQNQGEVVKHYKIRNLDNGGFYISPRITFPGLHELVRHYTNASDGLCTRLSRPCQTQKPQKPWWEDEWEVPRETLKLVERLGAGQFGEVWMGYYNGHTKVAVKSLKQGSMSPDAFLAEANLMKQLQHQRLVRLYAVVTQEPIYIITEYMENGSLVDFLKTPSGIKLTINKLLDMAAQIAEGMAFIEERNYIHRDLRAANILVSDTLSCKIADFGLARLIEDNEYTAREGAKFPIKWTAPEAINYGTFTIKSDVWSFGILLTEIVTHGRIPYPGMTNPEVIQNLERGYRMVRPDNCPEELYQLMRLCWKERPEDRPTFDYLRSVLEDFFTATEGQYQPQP
Assay: NanoBRET target engagement, LCK-NanoLuc, HEK293 cells (live, ATP depleted, permeabilized)
Format: binding
Conditions: LCK Replicate 2; permeabilized HEK293; probe 5; read-out: ATP Kd
Measured parameter: pKd
# pKd = -log10(concentration in molar units)

pKd measured on `Nc1ncnc2c1ncn2[C@@H]1O[C@H](COP(=O)(O)OP(=O)(O)OP(=O)(O)O)[C@@H](O)[C@H]1O` = 4.71

----------
Biological target: full-length kinase/Nluc fusion proteins (Homo sapiens, UniProt P22607)
Sequence (P22607 23-806): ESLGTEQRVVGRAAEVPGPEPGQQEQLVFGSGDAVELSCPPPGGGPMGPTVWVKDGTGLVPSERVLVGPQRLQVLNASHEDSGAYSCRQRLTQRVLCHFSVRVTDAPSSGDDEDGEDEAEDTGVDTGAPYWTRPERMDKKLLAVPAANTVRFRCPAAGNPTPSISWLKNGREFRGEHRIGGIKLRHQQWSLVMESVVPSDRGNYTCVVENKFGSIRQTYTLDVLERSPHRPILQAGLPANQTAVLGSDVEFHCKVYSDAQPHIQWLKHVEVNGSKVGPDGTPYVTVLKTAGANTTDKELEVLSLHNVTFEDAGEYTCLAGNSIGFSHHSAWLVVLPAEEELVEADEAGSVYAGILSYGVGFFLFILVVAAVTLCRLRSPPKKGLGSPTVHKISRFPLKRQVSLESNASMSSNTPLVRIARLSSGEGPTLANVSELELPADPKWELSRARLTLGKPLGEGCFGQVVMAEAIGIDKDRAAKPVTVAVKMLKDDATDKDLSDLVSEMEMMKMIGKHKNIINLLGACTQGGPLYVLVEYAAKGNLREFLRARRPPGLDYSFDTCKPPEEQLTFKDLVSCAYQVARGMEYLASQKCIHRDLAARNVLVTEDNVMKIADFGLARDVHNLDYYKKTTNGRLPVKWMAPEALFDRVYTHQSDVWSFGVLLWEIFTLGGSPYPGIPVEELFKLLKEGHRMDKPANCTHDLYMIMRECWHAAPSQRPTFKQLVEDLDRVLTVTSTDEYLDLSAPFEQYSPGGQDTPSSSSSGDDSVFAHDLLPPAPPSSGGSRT
Assay: Apparent affinity (EC50) of energy transfer probes by titration onto live HEK293 cells expressing kinase/Nluc fusions (Table S1)
Details: FGFR3, Nluc C; read-out: Probe EC50
Measured parameter: EC50 (nM)
Give just the number in nM; leave the unit off.

EC50 reported for this compound CNC(=O)c1ccccc1Nc1nc(Nc2ccc(N3CCN(C(=O)CCOCCOCCOCCOCCNC(=O)CCc4ccc5n4[B-](F)(F)[N+]4=C(c6ccc[nH]6)C=CC4=C5)CC3)cc2)ncc1Cl [Energy Transfer Probe 5] : 500

----------
Molecular target: full-length kinase/Nluc fusion proteins (Homo sapiens)
Assay: Apparent affinity (EC50) of energy transfer probes by titration onto live HEK293 cells expressing kinase/Nluc fusions (Table S1)
Format: binding
Details: TYK2 (NP_003322), Nluc orientation C; read-out: Probe EC50
Measured parameter: EC50

Noted for CNC(=O)c1ccccc1Nc1nc(Nc2ccc(N3CCN(C(=O)CCOCCOCCOCCOCCNC(=O)CCc4ccc5n4[B-](F)(F)[N+]4=C(c6ccc[nH]6)C=CC4=C5)CC3)cc2)ncc1Cl [Energy Transfer Probe 5] : its EC50 reads > 1000 nM

----------
Biological target: full-length kinase/Nluc fusion proteins (Homo sapiens)
Experiment: Apparent affinity (EC50) of energy transfer probes by titration onto live HEK293 cells expressing kinase/Nluc fusions (Table S1)
Settings: MAP4K5, Nluc C; read-out: Probe EC50
Measured parameter: EC50

Recorded result, CNC(=O)c1ccccc1Nc1nc(Nc2ccc(N3CCN(C(=O)CCOCCOCCOCCOCCNC(=O)CCc4ccc5n4[B-](F)(F)[N+]4=C(c6ccc[nH]6)C=CC4=C5)CC3)cc2)ncc1Cl [Energy Transfer Probe 5] , EC50: > 1000 nM

----------
Target: full-length kinase/Nluc fusion proteins (Homo sapiens, UniProt P51817)
Sequence (P51817 1-358): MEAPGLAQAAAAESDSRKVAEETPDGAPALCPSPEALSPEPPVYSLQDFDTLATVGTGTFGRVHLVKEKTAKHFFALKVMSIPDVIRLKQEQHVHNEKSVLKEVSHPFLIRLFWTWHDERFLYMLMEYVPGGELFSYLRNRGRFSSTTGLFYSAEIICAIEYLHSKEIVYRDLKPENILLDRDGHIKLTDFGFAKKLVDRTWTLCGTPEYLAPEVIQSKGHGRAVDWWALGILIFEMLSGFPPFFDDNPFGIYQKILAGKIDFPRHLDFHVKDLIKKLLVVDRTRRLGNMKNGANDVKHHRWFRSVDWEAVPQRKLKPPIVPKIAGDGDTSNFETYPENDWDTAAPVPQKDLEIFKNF
Test: Apparent affinity (EC50) of energy transfer probes by titration onto live HEK293 cells expressing kinase/Nluc fusions (Table S1)
Conditions: PRKX, Nluc C; read-out: Probe EC50
Measured parameter: EC50

Note to self: EC50 recorded for CNC(=O)c1ccccc1Nc1nc(Nc2ccc(N3CCN(C(=O)CCOCCOCCOCCOCCNC(=O)CCc4ccc5n4[B-](F)(F)[N+]4=C(c6ccc[nH]6)C=CC4=C5)CC3)cc2)ncc1Cl [Energy Transfer Probe 5] was > 1000 nM

----------
Target: full-length kinase/Nluc fusion proteins (Homo sapiens, UniProt P80192)
Sequence (P80192 whole entry, the tested form may be a part): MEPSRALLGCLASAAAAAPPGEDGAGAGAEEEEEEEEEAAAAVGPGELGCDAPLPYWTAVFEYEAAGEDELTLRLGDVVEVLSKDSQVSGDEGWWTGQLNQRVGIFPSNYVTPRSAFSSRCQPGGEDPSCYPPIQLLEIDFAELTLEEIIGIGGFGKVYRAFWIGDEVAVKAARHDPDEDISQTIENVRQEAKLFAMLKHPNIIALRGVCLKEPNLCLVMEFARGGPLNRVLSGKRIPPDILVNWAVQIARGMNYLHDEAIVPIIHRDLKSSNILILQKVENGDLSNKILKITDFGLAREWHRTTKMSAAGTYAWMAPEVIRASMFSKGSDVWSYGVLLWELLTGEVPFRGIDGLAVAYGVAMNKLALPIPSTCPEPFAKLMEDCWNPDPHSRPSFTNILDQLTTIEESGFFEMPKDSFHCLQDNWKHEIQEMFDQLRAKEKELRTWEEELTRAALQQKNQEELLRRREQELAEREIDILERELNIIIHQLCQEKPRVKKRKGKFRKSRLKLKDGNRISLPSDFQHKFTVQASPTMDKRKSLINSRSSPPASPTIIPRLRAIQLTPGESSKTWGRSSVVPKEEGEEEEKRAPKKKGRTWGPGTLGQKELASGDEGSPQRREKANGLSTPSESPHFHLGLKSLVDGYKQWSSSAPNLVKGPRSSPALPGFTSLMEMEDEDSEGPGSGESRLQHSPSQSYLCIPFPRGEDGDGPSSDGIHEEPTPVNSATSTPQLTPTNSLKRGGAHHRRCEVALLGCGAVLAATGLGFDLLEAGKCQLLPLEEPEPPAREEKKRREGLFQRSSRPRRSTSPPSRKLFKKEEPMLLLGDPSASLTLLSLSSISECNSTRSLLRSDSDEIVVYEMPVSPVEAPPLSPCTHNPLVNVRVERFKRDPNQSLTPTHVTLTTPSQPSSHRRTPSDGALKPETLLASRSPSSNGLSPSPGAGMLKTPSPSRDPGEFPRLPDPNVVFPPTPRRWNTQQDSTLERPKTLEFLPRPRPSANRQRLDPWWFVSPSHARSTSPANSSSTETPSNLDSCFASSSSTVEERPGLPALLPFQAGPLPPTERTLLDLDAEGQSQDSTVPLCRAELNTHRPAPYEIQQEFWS
Test: Apparent affinity (EC50) of energy transfer probes by titration onto live HEK293 cells expressing kinase/Nluc fusions (Table S1)
Details: MAP3K9, Nluc N; read-out: Probe EC50
Measured parameter: EC50

In plain terms, CNC(=O)c1ccccc1Nc1nc(Nc2ccc(N3CCN(C(=O)CCOCCOCCOCCOCCNC(=O)CCc4ccc5n4[B-](F)(F)[N+]4=C(c6ccc[nH]6)C=CC4=C5)CC3)cc2)ncc1Cl [Energy Transfer Probe 5] has a documented EC50 of > 1 µM
